Biological target: Proteasome subunit beta (Trypanosoma cruzi)
Test: Trypanosoma cruzi proteasome chymotrypsin-like activity (TcProtChymo) assay.
Format: functional
Set-up: scale not given: in the data most compounds retested in dose-response had high values
Details: 9.37 µM
QUANTITY_NAME: Percent Effect (%)
Numbers only, in %.

Would you please look over these solved cases?
>>> print(df.to_string())
                                   compound                            assayed_system   quantity_name  endpoint_result
0               O=S(=O)(Cc1ccccc1)NCc1ccco1  Proteasome subunit beta (Trypanosoma cruzi)  Percent Effect             -1.4
1  Cc1ccc(NC(=O)N2CCOC(C)C2)cc1Cl (centres undefined)  Proteasome subunit beta (Trypanosoma cruzi)  Percent Effect             26.6
2  COc1ccc(CN2CCC3(CC2)CCN(c2ncccn2)CC3)cc1  Proteasome subunit beta (Trypanosoma cruzi)  Percent Effect             1.29
3     CS(=O)(=O)CCC(=O)NC1(c2cccc(Br)c2)CC1  Proteasome subunit beta (Trypanosoma cruzi)  Percent Effect               15
4          Cc1cnn(CCNCc2ccccc2OCc2cccnc2)c1  Proteasome subunit beta (Trypanosoma cruzi)  Percent Effect               17
5     Oc1nc(N2CCOCC2)nc2c1CCN(Cc1cccnc1)CC2  Proteasome subunit beta (Trypanosoma cruzi)  Percent Effect             5.15

Give one value of Percent Effect per listed compound.
1. Cc1cn(-c2ccccc2)nc1NS(=O)(=O)c1cc(C(=O)O)cs1
2. CCOc1cccc(C(C)NCc2ccc(OC)c(OC)c2OC)c1 (centres undefined)
3. COc1cccn(CC(=O)N(C)CCOc2cc(C)cc(C)c2)c1=O
4. Cc1occc1C(=O)N1CCC[C@]2(C[C@@H](OCc3ccncc3)CO2)C1
5. CN(Cc1ccc(F)cc1)CC1(O)CCCN(CC(C)(C)C)C1=O (centres undefined)
6. O=C(c1n[nH]c(=O)c2ccccc12)N1CCCCC1c1ccn[nH]1 (centres undefined)

11.9
11.2
15.2
16.4
-3.16
1.72

Hi! Can you tell me Percent Effect for each of these compounds?
1. Cc1ccc(C(O)CNCc2c(C(C)C)nn(C)c2N(C)C)cc1 (centres undefined)
2. O=C(NC1CC1)[C@@H]1CCO[C@@H]2CCN(C3CCOCC3)C[C@@H]21
3. CN(Cc1cnn(C)c1)C(=O)NC1CCN(c2ncccn2)CC1
4. CCc1noc(CN(C)Cc2ccc(N3CCCCC3)cc2)n1
5. Cc1ccc(C(=O)N2CCC3(CC2)NC(=O)CC3c2ccccc2)cn1 (centres undefined)

10.1
3.49
6.25
13.5
7.35

Attribution: ChEMBL document CHEMBL3988442
